Attribution: patent US9186402B2

Target: HDAC6 (Homo sapiens, UniProt Q9UBN7)
Sequence (Q9UBN7 whole entry): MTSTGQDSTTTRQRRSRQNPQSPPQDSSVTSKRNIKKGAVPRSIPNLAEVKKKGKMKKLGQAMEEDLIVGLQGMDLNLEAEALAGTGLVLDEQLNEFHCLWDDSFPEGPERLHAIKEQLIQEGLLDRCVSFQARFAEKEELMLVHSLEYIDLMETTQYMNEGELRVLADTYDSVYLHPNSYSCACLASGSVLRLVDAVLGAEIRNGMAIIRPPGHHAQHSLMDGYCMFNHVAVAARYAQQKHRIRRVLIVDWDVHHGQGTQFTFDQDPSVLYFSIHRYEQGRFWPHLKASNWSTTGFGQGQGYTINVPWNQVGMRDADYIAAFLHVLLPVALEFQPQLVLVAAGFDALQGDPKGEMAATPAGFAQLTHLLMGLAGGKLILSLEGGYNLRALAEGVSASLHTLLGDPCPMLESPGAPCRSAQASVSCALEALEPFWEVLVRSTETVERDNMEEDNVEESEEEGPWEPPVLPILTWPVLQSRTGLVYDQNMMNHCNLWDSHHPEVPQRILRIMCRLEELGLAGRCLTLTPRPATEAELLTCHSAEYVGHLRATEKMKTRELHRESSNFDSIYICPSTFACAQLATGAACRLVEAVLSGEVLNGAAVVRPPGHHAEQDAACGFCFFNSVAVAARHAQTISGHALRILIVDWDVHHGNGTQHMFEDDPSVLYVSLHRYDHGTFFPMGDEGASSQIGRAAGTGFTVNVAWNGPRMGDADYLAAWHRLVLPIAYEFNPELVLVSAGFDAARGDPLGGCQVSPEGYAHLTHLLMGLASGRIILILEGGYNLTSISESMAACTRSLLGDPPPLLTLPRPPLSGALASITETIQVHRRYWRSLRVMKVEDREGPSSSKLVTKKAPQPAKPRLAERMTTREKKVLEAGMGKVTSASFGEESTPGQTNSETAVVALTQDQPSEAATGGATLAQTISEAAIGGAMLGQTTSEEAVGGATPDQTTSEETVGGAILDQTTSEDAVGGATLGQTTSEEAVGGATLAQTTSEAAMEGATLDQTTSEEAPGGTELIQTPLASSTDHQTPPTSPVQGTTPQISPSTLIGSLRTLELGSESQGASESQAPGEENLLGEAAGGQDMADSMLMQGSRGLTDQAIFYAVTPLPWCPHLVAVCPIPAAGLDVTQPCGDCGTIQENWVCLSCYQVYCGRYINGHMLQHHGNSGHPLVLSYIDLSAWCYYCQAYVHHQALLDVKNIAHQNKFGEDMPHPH
Test: HDAC biochemical assay (IC50), 384-well homogeneous
Settings: read-out: Biochemical inhibition of human HDACs (IC50) HDAC6
VALUE KIND: pIC50
A value of pIC50 is the negative decimal logarithm of a concentration given in moles per litre.

Inquiry: State its pIC50 for this compound: C[C@@]12CSC(=N1)c1csc(n1)CNC(=O)C[C@@H](/C=C/CCS)OC(=O)[C@@H]1CCCN1C2=O [Proline substitution (4)]
Reply text: 4.89

----------
Target: UniProt Q92769
Assay: HDAC2 inhibition, trypsin-coupled kinetic fluorescence homogeneous assay
Assay type: biochemical
Conditions: HDAC2; logistic fit of scatter plots, Conc (uM); read-out: X50 (curve fit, activity versus concentration)
VALUE KIND: IC50 (µM)
Could you give me the number in µM? Just the number is fine.

* CCCCCCCC(=O)SCC/C=C/[C@@H]1CC(=O)NCc2nc(cs2)C2=N[C@@](C)(CS2)C(=O)N2CCC[C@H]2C(=O)O1 [ab6_161b Proline acyl] | 708

Let's switch to this compound now.
Inquiry: Output reported IC50 of the compound CCCCCCCC(=O)SCCCCC=CC1CC(=O)NCc2nc(cs2)C2=NC(C)(CS2)C(=O)NC(C(C)C)C(=O)O1 (centres unmarked) [ab6_162b] on UniProt Q92769.
Reply text: 2.69

----------
Each item that follows carries a reported pIC50.
Molecular target: HDAC3/NCor2 (Homo sapiens)
Sequence (O15379 whole entry): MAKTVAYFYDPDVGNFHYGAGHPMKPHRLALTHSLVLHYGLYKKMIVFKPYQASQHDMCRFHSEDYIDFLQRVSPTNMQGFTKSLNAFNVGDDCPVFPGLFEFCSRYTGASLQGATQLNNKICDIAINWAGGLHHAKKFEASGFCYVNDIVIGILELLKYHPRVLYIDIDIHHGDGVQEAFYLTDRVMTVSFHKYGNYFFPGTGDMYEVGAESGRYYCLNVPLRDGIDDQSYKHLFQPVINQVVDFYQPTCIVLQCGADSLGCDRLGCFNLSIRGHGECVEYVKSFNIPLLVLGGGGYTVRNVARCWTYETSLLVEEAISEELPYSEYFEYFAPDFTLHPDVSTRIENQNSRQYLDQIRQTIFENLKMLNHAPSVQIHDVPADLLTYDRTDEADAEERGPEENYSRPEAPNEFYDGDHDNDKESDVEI
Sequence (Q9Y618 395-489 partner limits assumed): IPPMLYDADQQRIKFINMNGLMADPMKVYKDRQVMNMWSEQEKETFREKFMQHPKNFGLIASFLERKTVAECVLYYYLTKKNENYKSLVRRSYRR
Test: HDAC biochemical assay (IC50), 384-well homogeneous
Details: reducing conditions (TCEP 200 μM); read-out: Biochemical inhibition of human HDACs (IC50) HDAC3
A value of pIC50 is the negative decimal logarithm of a concentration given in moles per litre.

• CC(C)C1NC(=O)C2CSC(=N2)c2csc(n2)CNC(=O)CC(C=CCCS)OC1=O (stereo not drawn) [Cysteine substitution 22b] = 8.42

Let's switch to this compound now.
Inquiry: Output reported pIC50 of the compound CC(C)C1NC(=O)C2(C)CSC(=N2)c2cccc(n2)CNC(=O)CC(C=CCCS)OC1=O (stereo not drawn) [Thiazole-pyridine substitution (29b)] on HDAC3/NCor2 (Homo sapiens).
Reply text: 8.96

----------
Target: HDAC2 (Homo sapiens, UniProt Q92769)
Sequence (Q92769 whole entry): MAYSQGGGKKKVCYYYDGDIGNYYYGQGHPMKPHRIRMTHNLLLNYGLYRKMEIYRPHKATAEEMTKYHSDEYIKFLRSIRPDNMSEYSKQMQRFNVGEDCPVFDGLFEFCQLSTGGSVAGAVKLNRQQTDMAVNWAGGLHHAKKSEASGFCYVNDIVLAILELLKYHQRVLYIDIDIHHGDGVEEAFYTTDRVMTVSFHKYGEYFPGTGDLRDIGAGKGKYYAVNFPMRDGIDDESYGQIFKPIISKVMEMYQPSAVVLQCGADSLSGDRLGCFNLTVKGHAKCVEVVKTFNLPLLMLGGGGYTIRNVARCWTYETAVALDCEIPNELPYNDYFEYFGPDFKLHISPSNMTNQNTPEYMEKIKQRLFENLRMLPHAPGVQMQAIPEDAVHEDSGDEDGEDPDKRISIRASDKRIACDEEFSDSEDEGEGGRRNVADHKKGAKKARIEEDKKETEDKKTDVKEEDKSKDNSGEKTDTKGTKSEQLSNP
Experiment: HDAC biochemical assay (IC50), 384-well homogeneous
Settings: reducing conditions (TCEP 200 μM); read-out: Biochemical inhibition of human HDACs (IC50) HDAC2
Each item that follows carries a reported IC50.
Could you give me the number in µM? Just the number is fine.

Worked set:
* CC(C)C1NC(=O)C2CSC(=N2)c2csc(n2)CNC(=O)CC(C=CCCS)OC1=O (stereo not shown) [Cysteine substitution 22b] | 0.0048
* CC(C)[C@@H]1NC(=O)c2csc(n2)-c2csc(n2)CNC(=O)C[C@@H](/C=C/CCS)OC1=O [Thiazole-thiazole (23b)] | 0.12

Let's switch to this compound now.
Inquiry: State its IC50 for this compound: `C[C@@]12CSC(=N1)c1csc(n1)CNC(=O)C[C@@H](/C=C/CCS)OC(=O)[C@@H]1CCCN1C2=O`
Reply text: 0.8
